Reference source: ChEMBL document CHEMBL1137925

Biological target: Adrenergic receptor alpha-1 (Rattus norvegicus, UniProt P15823+P23944+P43140)
Sequence (P15823 whole entry): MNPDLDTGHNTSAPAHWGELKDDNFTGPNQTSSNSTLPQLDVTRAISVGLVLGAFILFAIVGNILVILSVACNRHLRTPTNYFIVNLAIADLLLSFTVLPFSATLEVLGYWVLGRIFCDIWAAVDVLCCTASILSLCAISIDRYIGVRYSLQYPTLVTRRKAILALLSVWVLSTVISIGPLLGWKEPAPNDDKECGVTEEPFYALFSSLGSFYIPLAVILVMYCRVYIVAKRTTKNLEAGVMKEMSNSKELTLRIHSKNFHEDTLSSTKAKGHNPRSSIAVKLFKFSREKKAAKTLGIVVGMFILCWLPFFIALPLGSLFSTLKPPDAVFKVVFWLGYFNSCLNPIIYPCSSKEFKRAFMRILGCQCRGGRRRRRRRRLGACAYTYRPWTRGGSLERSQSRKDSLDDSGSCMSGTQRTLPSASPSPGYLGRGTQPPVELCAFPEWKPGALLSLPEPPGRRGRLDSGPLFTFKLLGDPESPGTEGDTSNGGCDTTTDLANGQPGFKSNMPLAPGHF
Sequence (P23944 whole entry): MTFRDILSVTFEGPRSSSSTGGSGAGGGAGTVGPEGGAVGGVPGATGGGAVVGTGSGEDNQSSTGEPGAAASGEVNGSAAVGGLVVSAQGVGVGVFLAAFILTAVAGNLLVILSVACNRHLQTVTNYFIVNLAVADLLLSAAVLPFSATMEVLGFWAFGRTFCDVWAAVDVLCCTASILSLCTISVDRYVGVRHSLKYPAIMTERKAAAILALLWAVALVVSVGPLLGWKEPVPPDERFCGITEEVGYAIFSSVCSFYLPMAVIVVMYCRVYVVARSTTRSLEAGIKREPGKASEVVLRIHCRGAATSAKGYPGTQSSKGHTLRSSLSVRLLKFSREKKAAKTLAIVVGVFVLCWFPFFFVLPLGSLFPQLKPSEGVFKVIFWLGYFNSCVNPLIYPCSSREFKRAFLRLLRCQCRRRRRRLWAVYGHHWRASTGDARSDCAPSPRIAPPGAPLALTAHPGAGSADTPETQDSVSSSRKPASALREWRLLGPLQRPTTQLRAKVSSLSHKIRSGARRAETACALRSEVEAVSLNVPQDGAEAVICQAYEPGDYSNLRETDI
Sequence (P43140 whole entry): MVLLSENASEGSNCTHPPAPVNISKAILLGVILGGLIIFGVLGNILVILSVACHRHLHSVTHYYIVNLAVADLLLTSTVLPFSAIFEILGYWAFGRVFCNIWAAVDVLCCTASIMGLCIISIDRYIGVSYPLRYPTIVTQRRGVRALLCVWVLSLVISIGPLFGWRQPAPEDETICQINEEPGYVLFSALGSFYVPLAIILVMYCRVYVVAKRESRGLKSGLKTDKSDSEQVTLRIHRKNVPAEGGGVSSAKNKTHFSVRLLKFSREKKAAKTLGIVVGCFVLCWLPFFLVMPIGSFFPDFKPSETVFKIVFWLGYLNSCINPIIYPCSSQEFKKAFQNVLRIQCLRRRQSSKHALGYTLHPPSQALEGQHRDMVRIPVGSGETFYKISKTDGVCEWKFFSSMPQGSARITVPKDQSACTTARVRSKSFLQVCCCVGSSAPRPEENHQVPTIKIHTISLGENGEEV
Test: Binding affinity determined against alpha-1 adrenergic receptor in rat cortex membranes using [3H]prazosin as radioligand
Type: cell membranes
Labelling: Ki reported below 20 nM becomes condition met; at or above becomes condition not met.

[
  {
    "Compound": "NC(=O)c1ccc2c(c1)CCOC2CCN1CCC(c2c[nH]c3cc(F)ccc23)C1 (stereo not given)",
    "Target system": "Adrenergic receptor alpha-1 (Rattus norvegicus, UniProt P15823+P23944+P43140)",
    "Qualitative label": "condition met"
  },
  {
    "Compound": "NC(=O)c1ccc2c(c1)CCOC2CCN1CCC(c2cccc3ccccc23)CC1 (stereo not given)",
    "Target system": "Adrenergic receptor alpha-1 (Rattus norvegicus, UniProt P15823+P23944+P43140)",
    "Qualitative label": "condition not met"
  },
  {
    "Compound": "NC(=O)c1ccc2c(c1)CCOC2CCN1CC=C(c2c[nH]c3c(F)cccc23)CC1 (stereo not given)",
    "Target system": "Adrenergic receptor alpha-1 (Rattus norvegicus, UniProt P15823+P23944+P43140)",
    "Qualitative label": "condition not met"
  },
  {
    "Compound": "NC(=O)c1ccc2c(c1)CCOC2CCN1CC=C(c2c[nH]c3cc(F)ccc23)CC1 (stereo not given)",
    "Target system": "Adrenergic receptor alpha-1 (Rattus norvegicus, UniProt P15823+P23944+P43140)",
    "Qualitative label": "condition met"
  }
]

###

Biological target: UniProt:P28221
Sequence (P28221 whole entry): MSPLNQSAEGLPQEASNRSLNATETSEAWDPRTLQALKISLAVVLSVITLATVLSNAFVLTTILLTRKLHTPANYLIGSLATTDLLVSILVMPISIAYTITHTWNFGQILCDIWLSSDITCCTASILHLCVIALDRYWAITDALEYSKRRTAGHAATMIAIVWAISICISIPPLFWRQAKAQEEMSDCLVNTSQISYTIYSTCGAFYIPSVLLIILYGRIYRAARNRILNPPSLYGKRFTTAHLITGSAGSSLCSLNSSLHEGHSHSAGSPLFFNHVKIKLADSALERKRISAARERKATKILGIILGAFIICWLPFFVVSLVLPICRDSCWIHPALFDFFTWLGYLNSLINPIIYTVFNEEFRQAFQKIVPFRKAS
Experiment: Binding affinity towards human 5-hydroxytryptamine 1D receptor in L-M(tk-) cells using [3H]GR-125743 as radioligand
pKi: −log10 of the molar value.

[
  {
    "Compound": "NC(=O)c1ccc2c(c1)CCOC2CCN1CC=C(c2c[nH]c3cc(Cl)ccc23)CC1 (stereo not drawn)",
    "pKi": 6.84
  },
  {
    "Compound": "NC(=O)c1ccc2c(c1)CCOC2CCN1CCC(c2c[nH]c3cc(F)ccc23)CC1 (stereo not drawn)",
    "pKi": 8.08
  },
  {
    "Compound": "NC(=O)c1ccc2c(c1)CCOC2CCN1CC=C(c2[nH]nc3cc(F)ccc23)CC1 (stereo not drawn)",
    "pKi": 7.62
  },
  {
    "Compound": "NC(=O)c1ccc2c(c1)CCOC2CCN1CCC(c2cccc3ccccc23)CC1 (stereo not drawn)",
    "pKi": 7.85
  },
  {
    "Compound": "NC(=O)c1ccc2c(c1)CCOC2CCN1CC=C(c2ccc3cc(F)ccc3c2)CC1 (stereo not drawn)",
    "pKi": 7.15
  },
  {
    "Compound": "NC(=O)c1ccc2c(c1)CCOC2CCN1CC=C(c2c[nH]c3ccc(F)cc23)CC1 (stereo not drawn)",
    "pKi": 6.89
  },
  {
    "Compound": "NC(=O)c1ccc2c(c1)CCOC2CCN1CC=C(c2c[nH]c3cc(F)ccc23)CC1 (stereo not drawn)",
    "pKi": 7.25
  },
  {
    "Compound": "NC(=O)c1ccc2c(c1)CCO[C@@H]2CCN1CC=C(c2c[nH]c3c(F)cccc23)CC1",
    "pKi": 7.60
  }
]

###

Molecular target: 5-hydroxytryptamine receptor 1B (Homo sapiens, UniProt P28222)
Sequence (P28222 whole entry): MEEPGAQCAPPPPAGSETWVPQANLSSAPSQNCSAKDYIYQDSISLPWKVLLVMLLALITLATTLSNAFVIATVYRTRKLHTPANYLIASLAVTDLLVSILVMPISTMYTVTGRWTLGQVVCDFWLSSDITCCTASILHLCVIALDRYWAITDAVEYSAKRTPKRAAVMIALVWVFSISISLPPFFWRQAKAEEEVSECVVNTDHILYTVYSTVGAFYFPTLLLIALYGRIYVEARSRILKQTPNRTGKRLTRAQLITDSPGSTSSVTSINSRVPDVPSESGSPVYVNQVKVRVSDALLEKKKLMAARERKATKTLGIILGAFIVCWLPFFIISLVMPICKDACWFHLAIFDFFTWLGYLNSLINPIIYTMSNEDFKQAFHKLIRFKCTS
Experiment: Binding affinity towards human 5-hydroxytryptamine 1B receptor in L-M(tk-) cells using [3H]GR-125743 as radioligand
pKi: −log10 of the molar value.
Recorded pKi by entry

[
  {
    "Compound": "NC(=O)c1ccc2c(c1)CCOC2CCN1CC=C(c2c[nH]c3c(F)cccc23)CC1 (stereo unspecified)",
    "pKi": "< 6.00"
  },
  {
    "Compound": "NC(=O)c1ccc2c(c1)CCOC2CCN1CC=C(c2c[nH]c3c(F)c(F)ccc23)CC1 (stereo unspecified)",
    "pKi": "< 6.00"
  },
  {
    "Compound": "NC(=O)c1ccc2c(c1)CCOC2CCN1CC=C(c2c[nH]c3cc(C(F)(F)F)ccc23)CC1 (stereo unspecified)",
    "pKi": "< 6.00"
  },
  {
    "Compound": "NC(=O)c1ccc2c(c1)CCOC2CCN1CC=C(c2c[nH]c3ccc(F)cc23)CC1 (stereo unspecified)",
    "pKi": "< 6.00"
  },
  {
    "Compound": "C[C@H]1CC(c2c[nH]c3cc(F)ccc23)CCN1CCC1OCCc2cc(C(N)=O)ccc21 (stereo partly specified)",
    "pKi": "< 6.00"
  },
  {
    "Compound": "Cn1cc(C2=CCN(CCC3OCCc4cc(C(N)=O)ccc43)CC2)c2ccc(F)cc21 (stereo unspecified)",
    "pKi": "< 6.00"
  },
  {
    "Compound": "NC(=O)c1ccc2c(c1)CCOC2CCN1CC=C(c2c[nH]c3c(Cl)c(Cl)ccc23)CC1 (stereo unspecified)",
    "pKi": "< 6.00"
  },
  {
    "Compound": "N#Cc1cccc2c(C3=CCN(CCC4OCCc5cc(C(N)=O)ccc54)CC3)c[nH]c12 (stereo unspecified)",
    "pKi": "< 6.00"
  },
  {
    "Compound": "NC(=O)c1ccc2c(c1)CCOC2CCN1CC=C(c2c[nH]c3cc(Cl)ccc23)CC1 (stereo unspecified)",
    "pKi": "< 6.00"
  },
  {
    "Compound": "NC(=O)c1ccc2c(c1)CCOC2CCN1CC=C(c2ccc3cc(F)ccc3c2)CC1 (stereo unspecified)",
    "pKi": "< 6.00"
  },
  {
    "Compound": "Cn1nc(C2=CCN(CCC3OCCc4cc(C(N)=O)ccc43)CC2)c2ccc(F)cc21 (stereo unspecified)",
    "pKi": "< 6.00"
  }
]
